Data credit: patent US12617762B2

# Test system: NRF2 (nuclear factor erythroid 2-related factor 2)
# ASSAY: NRF2 +/-GSH activation assay (DiscoverX PathHunter NRF2 translocation kit, U2OS cells)
# Format: cell-based
# RUN_PARAMETERS: +GSH; normalised to DMF high control
# Protocol: Measuring Compound Activation Effects on the Anti-Inflammatory Transcription Factor NRF2 in DiscoverX PathHunter NRF2 Translocation Kit Potency and efficacy of compounds of formula (I) against the target of interest to activate NRF2 (nuclear factor erythroid 2-related factor 2) were determined using the PathHunter NRF2 translocation kit (DiscoverX). […] Percentage activation was calculated by normalising the sample data to the high and low controls used within each plate (+/−DMF).
Returns Y if the recorded NRF2 activation +GSH Emax is greater than or equal to 50%, and N otherwise.

Exercise: Determine whether this molecule has NRF2 activation +GSH Emax no lower than 50%: C=C(Cc1nc(-c2ccc(OC3CCCC3)cc2)no1)C(=O)O
Key: Y

Exercise: Determine whether this molecule has NRF2 activation +GSH Emax no lower than 50%: C=C(Cc1nc(C2(c3ccc(Cl)c(F)c3)CC2)no1)C(=O)O
Key: N

Exercise: Determine whether this molecule has NRF2 activation +GSH Emax no lower than 50%: C=C(Cc1nnc(CCCCCCCC)s1)C(=O)O
Key: Y

Exercise: Determine whether this molecule has NRF2 activation +GSH Emax no lower than 50%: C=C(Cc1nc(C2CC3(C2)CC2(CCC2)C3)no1)C(=O)O
Key: Y

Exercise: Determine whether this molecule has NRF2 activation +GSH Emax no lower than 50%: C=C(C(=O)O)C1(c2nc(C3(c4ccc(C(F)(F)F)cc4)CC3)no2)CC1
Key: N

Exercise: Determine whether this molecule has NRF2 activation +GSH Emax no lower than 50%: C=C(Cc1nnc(CCCCCCCC)o1)C(=O)O
Key: Y

Exercise: Determine whether this molecule has NRF2 activation +GSH Emax no lower than 50%: C/C(=C\c1nc(C2(c3ccc(S(F)(F)(F)(F)F)cc3)CC2)no1)C(=O)O
Key: N

Exercise: Determine whether this molecule has NRF2 activation +GSH Emax no lower than 50%: C=C(Cc1nc(C2(c3ccc(SC(F)(F)F)cc3)CC2)no1)C(=O)O
Key: Y

====

# ASSAY: Hepatocyte stability assay, human
# Format: in vitro ADME
# RUN_PARAMETERS: human, hepatocytes, Hepatocyte stability T½
Please go through the items and note down their half-life at 10 μM.
# number only, unit min dropped from output

The recorded half-life at 10 μM for entry C=C(Cc1nc(CCCCCCC)no1)C(=O)O equals 31

The recorded half-life at 10 μM for entry C=C(Cc1nc(-c2ccc(OCc3ccccc3)cc2)no1)C(=O)O equals 19

The recorded half-life at 10 μM for entry C=C(Cc1nc(C2(c3ccc(OC4CCC4)cc3)CC2)no1)C(=O)O equals 71

The recorded half-life at 10 μM for entry C=C(Cc1nc(C(F)(F)c2ccc(SC(F)(F)F)cc2)no1)C(=O)O equals 201

The recorded half-life at 10 μM for entry C=C(Cc1nc(C2(c3ccc(C(F)(F)F)cc3)CC2)co1)C(=O)O equals 31

The recorded half-life at 10 μM for entry C=C(Cc1nc(CCCCCCC(F)(F)C(F)(F)F)no1)C(=O)O equals 34

The recorded half-life at 10 μM for entry C=C(Cc1cnc(CCCCCCCC)cn1)C(=O)O equals 5

The recorded half-life at 10 μM for entry C=C(Cc1nc(CCCCCCCC)no1)C(=O)O equals 12

The recorded half-life at 10 μM for entry C=C(Cc1nc(-c2ccc(CCCCC(F)(F)F)cc2)no1)C(=O)O equals 15

The recorded half-life at 10 μM for entry C=C(Cc1nc(C(F)(F)c2ccc(Br)c(Cl)c2)no1)C(=O)O equals 35

The recorded half-life at 10 μM for entry C=C(Cc1nc(-c2ccc(C(F)(F)CCCC)cc2)no1)C(=O)O equals 11

The recorded half-life at 10 μM for entry C=C(Cc1nc(Cc2ccc(OCCCC)cc2)no1)C(=O)O equals 55

The recorded half-life at 10 μM for entry C=C(Cc1nc(C(F)(F)c2ccc(Br)cc2)no1)C(=O)O equals 206

The recorded half-life at 10 μM for entry C=C(Cc1noc(C(F)(F)c2ccc(Cl)cc2)n1)C(=O)O equals 115

The recorded half-life at 10 μM for entry C=C(Cc1nc(Cc2cc(Cl)c(F)c(Cl)c2)no1)C(=O)O equals 112

The recorded half-life at 10 μM for entry C=C(Cc1nc(-c2ccc(CCCCC)cc2)no1)C(=O)O equals 5

====

# Tested on: NRF2 (nuclear factor erythroid 2-related factor 2)
# ASSAY: NRF2 +/-GSH activation assay (DiscoverX PathHunter NRF2 translocation kit, U2OS cells)
# Assay type: cell-based
# RUN_PARAMETERS: +GSH; 30 minute compound-GSH pre-incubation; read-out: NRF2 activation +GSH EC50
RECORDED_METRIC: EC50 (µM)
# number only, unit µM dropped from output

Fill in: NRF2 (nuclear factor erythroid 2-related factor 2) EC50 for C=C(Cc1nc(Cc2cc(F)c(Cl)c(F)c2)no1)C(=O)O [Example 164] = 63.4

Fill in: NRF2 (nuclear factor erythroid 2-related factor 2) EC50 for C=C(Cc1nc(CCCCCCCC(F)(F)F)no1)C(=O)O [Example 11] = 13.1

Fill in: NRF2 (nuclear factor erythroid 2-related factor 2) EC50 for C=C(Cc1nc(CCCc2ccc(Cl)cc2)no1)C(=O)O [Example 33] = 23.3

Fill in: NRF2 (nuclear factor erythroid 2-related factor 2) EC50 for C=C(Cc1nc(C(C)(C)CCCCC)no1)C(=O)O [Example 12] = 61.9

Fill in: NRF2 (nuclear factor erythroid 2-related factor 2) EC50 for C=C(C(=O)O)C(OC)c1nc(CCCCCCCC)no1 (centres unmarked) [Example 110] = 48.8

====

# Tested on: NRF2 (nuclear factor erythroid 2-related factor 2)
# ASSAY: NRF2 +/-GSH activation assay (DiscoverX PathHunter NRF2 translocation kit, U2OS cells)
# Assay type: cell-based
# RUN_PARAMETERS: +GSH; 30 minute compound-GSH pre-incubation; read-out: NRF2 activation +GSH EC50
Please go through the items and note down their pEC50.
A value of pEC50 is the negative decimal logarithm of a concentration given in moles per litre.

The recorded pEC50 for entry C=C(Cc1nc(C(F)(F)c2ccc(Cl)cc2)no1)C(=O)O [Example 74] equals 4.35

The recorded pEC50 for entry C=C(Cc1nc(CCC#CCCCC)no1)C(=O)O [Example 57] equals 4.30

The recorded pEC50 for entry C=C(Cc1nc(CCCCCCC(C)(F)F)no1)C(=O)O [Example 31] equals 4.39

The recorded pEC50 for entry C=C(Cc1nnc(CCCCCCCC)s1)C(=O)O [Example 37] equals 5.02

The recorded pEC50 for entry C=C(Cc1nc(-c2ccc(OC3CCC3)cc2)no1)C(=O)O [Example 142] equals 4.57

The recorded pEC50 for entry C=C(Cc1nc(CCCCCCC(F)(F)C(F)(F)F)no1)C(=O)O [Example 17] equals 5.06

The recorded pEC50 for entry C=C(Cc1nc(-c2ccc(C(F)(F)CCCC)cc2)no1)C(=O)O [Example 79] equals 5.68

The recorded pEC50 for entry C=C(Cc1nc(CCCC)c(CCCC)o1)C(=O)O [Example 123] equals 4.20

====

# System: NRF2 (nuclear factor erythroid 2-related factor 2)
# ASSAY: NRF2 +/-GSH activation assay (DiscoverX PathHunter NRF2 translocation kit, U2OS cells)
# Assay type: cell-based
# RUN_PARAMETERS: +GSH; 30 minute compound-GSH pre-incubation; read-out: NRF2 activation +GSH EC50
pEC50: −log10 of the molar value.
Returns yes (1) if the recorded pEC50 is greater than or equal to 5, and no (0) otherwise.

Exercise: Determine whether this compound has pEC50 no lower than 5: C=C(Cc1noc(Cc2ccc(CCCC)cc2)n1)C(=O)O
Key: yes (1)

Exercise: Determine whether this compound has pEC50 no lower than 5: C=C(Cc1nc(C2(c3ccccc3Cl)CC2)no1)C(=O)O
Key: no (0)

Exercise: Determine whether this compound has pEC50 no lower than 5: C=C(Cc1nc(Cc2ccc(C3(C(F)(F)F)CC3)cc2)no1)C(=O)O
Key: no (0)

Exercise: Determine whether this compound has pEC50 no lower than 5: C=C(Cc1nc(-c2ccc(OCCCC)c(Cl)c2)no1)C(=O)O
Key: yes (1)

Exercise: Determine whether this compound has pEC50 no lower than 5: C=C(Cc1ncc(CCCCCCCC)o1)C(=O)O
Key: yes (1)

Exercise: Determine whether this compound has pEC50 no lower than 5: C=C(Cc1nc(-c2ccc(OCCC)c(Cl)c2)no1)C(=O)O
Key: no (0)

Exercise: Determine whether this compound has pEC50 no lower than 5: C=C(Cc1nc(C23CC4CC(CC(C4)C2)C3)no1)C(=O)O
Key: no (0)
